Target: T1, GFP-9S library array, motif 4 ND N98D;D124A (synthetic construct, N98D;D124A)
T1 chain: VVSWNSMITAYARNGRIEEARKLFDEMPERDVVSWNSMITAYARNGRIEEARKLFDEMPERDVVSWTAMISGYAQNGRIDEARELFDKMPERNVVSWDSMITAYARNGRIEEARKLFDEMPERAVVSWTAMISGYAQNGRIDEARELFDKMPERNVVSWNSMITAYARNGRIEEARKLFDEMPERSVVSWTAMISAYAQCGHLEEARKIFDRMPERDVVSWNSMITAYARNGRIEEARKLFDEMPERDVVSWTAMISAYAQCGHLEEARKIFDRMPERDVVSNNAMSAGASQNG
Test: high-throughput RNA pulldown from lysate on Ni-NTA beads; HRP: 50 mM Tris pH 8, 150 mM NaCl, 1 mM beta-mercaptoethanol, 50 ug/ml BSA, 3 ug/ml yeast RNA, 0.5% heparin; ITC and FP: Tris pH 8, 200 mM KCl, 5% glycerol; MST: 50 mM Tris pH 8, 200 mM NaCl, 1 mM DTT, BSA, heparin, 0.05% Tween 20
Conditions: tags: N-terminal His-eGFP; label: 5' IRDye 800CW
pKd values for the binders below.
Would you please state pKd, meaning minus log10 of the concentration in mol/L, as a bare number?

AUUAUACGUGA (ssRNA) [IR-rpoA-U] ... 6.76

Exercise: For AUUAAACGUGA (ssRNA) [IR-rpoA-A] , what is its reported pKd?
Solution: 6.63
